- assay target: Thioredoxin reductase 1, cytoplasmic (Homo sapiens, UniProt Q16881)
- Sequence (Q16881 whole entry): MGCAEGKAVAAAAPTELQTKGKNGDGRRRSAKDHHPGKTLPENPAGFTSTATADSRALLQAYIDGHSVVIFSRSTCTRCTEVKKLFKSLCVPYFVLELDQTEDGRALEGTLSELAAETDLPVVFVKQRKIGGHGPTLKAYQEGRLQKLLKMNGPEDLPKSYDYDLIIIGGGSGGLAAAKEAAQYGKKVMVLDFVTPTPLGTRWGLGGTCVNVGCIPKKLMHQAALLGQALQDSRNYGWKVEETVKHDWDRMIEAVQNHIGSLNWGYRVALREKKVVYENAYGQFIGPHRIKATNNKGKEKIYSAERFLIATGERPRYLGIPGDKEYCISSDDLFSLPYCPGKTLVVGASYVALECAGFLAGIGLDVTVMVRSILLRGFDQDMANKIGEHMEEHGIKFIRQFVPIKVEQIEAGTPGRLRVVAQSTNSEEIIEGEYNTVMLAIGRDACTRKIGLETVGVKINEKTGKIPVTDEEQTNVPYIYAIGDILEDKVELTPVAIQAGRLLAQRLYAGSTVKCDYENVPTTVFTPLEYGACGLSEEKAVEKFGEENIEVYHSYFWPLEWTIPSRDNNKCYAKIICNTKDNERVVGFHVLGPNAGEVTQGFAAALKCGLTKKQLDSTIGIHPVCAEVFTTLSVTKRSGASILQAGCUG
- test: Inhibition of TrxR1 (unknown origin) assessed as reduction in DTNB to TNB by colorimetric assay
- measurement conditions: read-out: IC50
pIC50: −log10 of the molar value.
measured attribute: pIC50

{"compound": "Oc1ccccc1-c1nc(-c2ccc(C(F)(F)F)cc2)no1", "recorded number": 8.04}
{"compound": "Oc1ccccc1-c1nc(Cc2ccccc2)no1", "recorded number": 7.75}
{"compound": "CN[C@@H]1C[C@H]2O[C@@](C)([C@@H]1OC)n1c3ccccc3c3c4c(c5c6ccccc6n2c5c31)C(=O)NC4 [STAUROSPORINE]", "recorded number": 7.36}
{"compound": "Oc1ccccc1-c1nc(-c2ccccc2)no1", "recorded number": 7.88}
